Entry source: patent US20210332115A1

biological target: Homo sapiens factor Bb protein (human, UniProt P00751 260-764); test: cell-based or functional assay
Sequence (P00751 260-764 limits assumed): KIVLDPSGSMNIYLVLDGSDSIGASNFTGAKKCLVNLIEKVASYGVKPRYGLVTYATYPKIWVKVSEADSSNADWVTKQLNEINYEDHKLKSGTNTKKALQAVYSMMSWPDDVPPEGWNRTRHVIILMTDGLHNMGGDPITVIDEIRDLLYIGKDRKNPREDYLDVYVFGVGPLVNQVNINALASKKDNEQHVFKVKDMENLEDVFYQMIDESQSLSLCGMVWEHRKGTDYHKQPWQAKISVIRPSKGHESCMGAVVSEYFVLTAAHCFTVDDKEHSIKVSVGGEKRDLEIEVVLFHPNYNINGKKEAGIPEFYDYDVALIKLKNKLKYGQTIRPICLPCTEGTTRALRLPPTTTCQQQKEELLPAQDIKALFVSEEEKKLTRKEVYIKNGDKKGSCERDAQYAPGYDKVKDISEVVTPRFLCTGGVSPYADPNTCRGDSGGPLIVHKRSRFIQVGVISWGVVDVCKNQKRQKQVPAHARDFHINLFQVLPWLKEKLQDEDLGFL
metric: AP Assay IC50 (nM)

VH7/Vκ7 (antibody, V domains shown, Redesigned variant; cloned into the appropriate expression vector (IgG4v1 and kappa were used in the first round); also called VH7/VκK7) VH: EVQLVESGGGLVKPGGSLRLSCAASGFTFSNYAMSWVRQTPEKRLEWVATISNRGSYTYYPDSVKGRFTISRDNAKNSLYLQMNSLRAEDTALYYCARERPMDYWGQGTLVTVSS VL: DIQMTQSPSTLSASVGDRVTITCKASQDVGTAVAWYQQKPGKAPKLLIYWASTRHTGVPDRFSGSGSGTDFTLTISSLQAEDFAVYFCHQHSSNPLTFGQGTKLEIK | 25
VH0/Vκ0 (Chimeric) (antibody, V domains shown, also called chimeric antibody) VH: EVQLVESGGALVKPGGSLKLSCAASGFTFSNYAMSWVRQTPEKRLEWVATISNRGSYTYYPDSVKGRFTISRDNAKNTLYLQMSSLRSEDTALYYCARERPMDYWGQGTSVTVSS VL: DIVMTQSHKFMSTSVGDRVSITCKASQDVGTAVAWYQQKPGQSPKLLIYWASTRHTGVPDRFTGSGSGTDFTLTITNVQSEDLAVYFCHQHSSNPLTFGAGTKLELK | 24
VH4/Vκ7 (antibody, V domains shown, Redesigned variant; cloned into the appropriate expression vector (IgG4v1 and kappa were used in the first round)) VH: EVQLVESGGGLVKPGGSLRLSCAASGFTFSNYAMSWVRQAPGKRLEWVATISNRGSYTYYPDSVKGRFTISRDNAKNSLYLQMSSLRSEDTALYYCARERPMDYWGQGTSVTVSS VL: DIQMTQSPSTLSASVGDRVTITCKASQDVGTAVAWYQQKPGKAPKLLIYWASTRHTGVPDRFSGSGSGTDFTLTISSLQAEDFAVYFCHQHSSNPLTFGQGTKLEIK | 23
VH6/Vκ6 (antibody, V domains shown, Redesigned variant; cloned into the appropriate expression vector (IgG4v1 and kappa were used in the first round)) VH: EVQLVESGGGLVKPGGSLRLSCAASGFTFSNYAMSWVRQAPGKRLEWVATISNRGSYTYYPDSVKGRFTISRDNAKNSLYLQMNSLRAEDTALYYCARERPMDYWGQGTLVTVSS VL: DIVMTQSPSFLSASVGDRVTITCKASQDVGTAVAWYQQKPGKAPKLLIYWASTRHTGVPDRFTGSGSGTDFTLTISSLQSEDFAVYFCHQHSSNPLTFGQGTKLEIK | 19
